Item-by-item account of IC50
# Test system: non-malignant CHO-K1 cell line
# ASSAY_TEXT: Sulforhodamine B (SRB) growth inhibition / cytotoxicity, CHO-K1
# Type: cell-based
# EXPERIMENTAL_CONTEXT: Cricetulus griseus, 48 h, mean ± SE, read-out: IC50 (mM) CHO-K1 cells
# Method: Biological assays were performed using adenocarcinoma colon cancer (SW480) and non-malignant (CHO-K1) cell lines obtained from The European Collection of Authenticated Cell Cultures (ECACC, England). […] The growth inhibition of the ethanol extract, the Chromone and 5-fluorouracil (5-FU; the standard drug) was evaluated through sulforhodamine B (SRB) assay, a colorimetric test that is based on staining of total cellular protein of adherent cells. […]
// units = mM; emit number, no label

MOLECULE | MEASURE_UNIT | IC50
O=c1[nH]cc(F)c(=O)[nH]1 [5-Fluorouracil, reference compound] | mM | 0.046
O=C(O)Cc1ccccc1Nc1c(Cl)cccc1Cl [Diclofenac, reference compound] | mM | 0.202
C=CCSC[C@H](NC(=O)C(C)c1ccc(CC(C)C)cc1)C(=O)OC (mixture of isomers) [12a] | mM | 0.201
C=CCSC[C@H](NC(=O)C(C)c1ccc(CC(C)C)cc1)C(=O)OCC (mixture of isomers) [12b] | mM | 0.241
C=CCSC[C@H](NC(=O)Cc1ccccc1Nc1c(Cl)cccc1Cl)C(=O)OC [10a] | mM | 0.112
C=CCSC[C@H](NC(=O)c1ccccc1O)C(=O)OC | mM | 0.157

Input: # lookup: IC50 of C=CCSC[C@H](NC(=O)Cc1ccccc1Nc1c(Cl)cccc1Cl)C(=O)OCCC [10c]
Output: 0.167

---

In this section, each of the compounds is paired with its reported melting point.

Input: I would be grateful if you could share the reported melting point for `C=CCSC[C@H](NC(=O)c1ccccc1O)C(=O)OC` .
Output: 112 to 114 °C

---

Readings of IC50 for the listed compounds
# Test system: non-malignant CHO-K1 cell line
# ASSAY_TEXT: Sulforhodamine B (SRB) growth inhibition / cytotoxicity, CHO-K1
# Format: cell-based
# EXPERIMENTAL_CONTEXT: Cricetulus griseus, 24 h, mean ± SE, read-out: IC50 (mM) CHO-K1 cells
# Method: Biological assays were performed using adenocarcinoma colon cancer (SW480) and non-malignant (CHO-K1) cell lines obtained from The European Collection of Authenticated Cell Cultures (ECACC, England). […] The growth inhibition of the ethanol extract, the Chromone and 5-fluorouracil (5-FU; the standard drug) was evaluated through sulforhodamine B (SRB) assay, a colorimetric test that is based on staining of total cellular protein of adherent cells. […]

Field: example entries. Status: answers known.
COMPOUND | IC50
O=C(O)Cc1ccccc1Nc1c(Cl)cccc1Cl [Diclofenac, reference compound] | > 0.2 mM
C=CCSC[C@H](NC(=O)c1ccccc1O)C(=O)OC | 0.146 mM
C=CCSC[C@H](NC(=O)C(C)c1ccc2cc(OC)ccc2c1)C(=O)OCCC (mixture of isomers) [11c] | > 0.2 mM
O=c1[nH]cc(F)c(=O)[nH]1 [5-Fluorouracil, reference compound] | 0.125 mM

Input: For the compound shown here, C=CCSC[C@H](NC(=O)Cc1ccccc1Nc1c(Cl)cccc1Cl)C(=O)OCCC [10c] , give the reported IC50.
Output: 0.223 mM

Input: Which IC50 is reported for this compound? CC(C)Cc1ccc(C(C)C(=O)O)cc1 (stereo not drawn) [Ibuprofen, reference compound]
Output: > 0.2 mM

Input: Can you share its IC50? I mean this compound: COc1ccc2cc([C@H](C)C(=O)O)ccc2c1 [Naproxen, reference compound]
Output: > 0.2 mM

Input: So what's the measured IC50 for this one? C=CCSC[C@H](NC(=O)Cc1ccccc1Nc1c(Cl)cccc1Cl)C(=O)OCC [10b]
Output: > 0.2 mM

Input: For the compound shown here, C=CCSC[C@H](NC(=O)C(C)c1ccc(CC(C)C)cc1)C(=O)OCC (mixture of isomers) [12b] , give the reported IC50.
Output: > 0.2 mM

Data provenance: paper PMC8653649
